# log2 fold change of degron read counts per entry
Target: T1, CRBN, Q96SW2;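 also: pooled lentiviral library of zinc finger degron-EGFP fusions in mCherry-positive Jurkat cells, FACS-sorted after compound exposure, with degron abundance counted by next-generation sequencing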
T1 chain: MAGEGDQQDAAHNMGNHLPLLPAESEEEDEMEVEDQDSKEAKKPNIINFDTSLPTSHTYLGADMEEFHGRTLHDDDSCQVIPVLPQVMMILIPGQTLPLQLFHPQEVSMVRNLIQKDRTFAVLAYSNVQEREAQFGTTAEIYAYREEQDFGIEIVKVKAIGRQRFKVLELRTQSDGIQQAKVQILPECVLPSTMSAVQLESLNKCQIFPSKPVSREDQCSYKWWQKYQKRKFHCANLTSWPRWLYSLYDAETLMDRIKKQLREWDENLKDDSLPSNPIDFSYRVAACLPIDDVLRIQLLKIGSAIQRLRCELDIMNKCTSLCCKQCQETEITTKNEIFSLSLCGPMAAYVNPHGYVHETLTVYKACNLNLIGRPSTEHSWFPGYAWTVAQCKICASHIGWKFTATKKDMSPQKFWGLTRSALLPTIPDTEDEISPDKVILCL
Assay: log2 fold change of degron read counts, EGFP-low vs EGFP+ sorted cells (limma voom), compound-induced degradation; higher = more compound-induced degradation of the degron-EGFP fusion; degrons are variants of IKZF1/3 zinc finger 2; compound dose not given here
Details: Jurkat; 18 h; compound: compound 19 (5-tert-butyl-thalidomide)
Whole data set: some 8,300 sequences, median “log2 fold change of degron read counts, EGFP-low vs EGFP+ sorted cells (limma voom), compound-induced degradation” near -1.1, cut for the highest 2% near 3.2. Many of the other results were omitted from the sample, so the highest values are more common in it than they were.

LICPICGFTCTQKGNLLRHIKL [46L_47I_49P_50I_52G_53F_54T_55C_67L_, Q9UKT9] = 0.369
FFCDICGAKFTQKGNLLRHIKL [46F_47F_49D_50I_52G_53A_54K_55F_67L_, Q9UKT9] = 3.35

// log2 fold change of degron read counts lookup, sequence = LQCPICGFTCTQKGNLLRHIKL [46L_47Q_49P_50I_52G_53F_54T_55C_67L_, Q9UKT9] , result: 1.75

// log2 fold change of degron read counts lookup, sequence = FHCEICGRPFTQKGNLLRHIKL [46F_47H_49E_50I_52G_53R_54P_55F_67L_, Q9UKT9] , result: 1.69

// log2 fold change of degron read counts lookup, sequence = LYCEICGFICTQKGNLLRHIKL [46L_47Y_49E_50I_52G_53F_54I_55C_67L_, Q9UKT9] , result: 2.99

// log2 fold change of degron read counts lookup, sequence = LKCPICGFTCTQKGNLLRHIKL [46L_47K_49P_50I_52G_53F_54T_55C_67L_, Q9UKT9] , result: -0.865

// log2 fold change of degron read counts lookup, sequence = LFCPICGFTCTQKGNLLRHIKL [46L_47F_49P_50I_52G_53F_54T_55C_67L_, Q9UKT9] , result: 3.39
